Would you mind telling me the reported activity change of each entry?
# TEST NAME: qHTS for Inhibitors of Inflammasome Signaling: IL-1-beta AlphaLISA Primary Screen; further: on the % scale 0 is the no-effect control and ±100 the full control effect
# STATED CONDITIONS: THP-1 LPS/ATP IL-1B secretion, 16 h; at 57.5 µM, hits give low values
The campaign covered roughly 360,000 compounds. About 17,000 (4.7%) were called active. Another 5% or so got no clear call; they are omitted. What follows is part of a selection rich in actives, with near analogues and random picks from the rest.

[Q] Which measured activity change value corresponds to Cc1ccc(CNC(=O)C(=O)c2cn(CC(=O)N3CCOCC3)c3ccccc23)cc1 ?
[A] -24.4% (inactive)

[Q] Which measured activity change value corresponds to Cc1ccc(S(=O)(=O)C2C(=O)NC3(C)CC2c2ccccc2O3)cc1 (stereo not given) ?
[A] 12.4% (inactive)

[Q] Which measured activity change value corresponds to C/C(COc1ccccc1)=N\NC(=O)c1nnn(-c2nonc2N)c1-c1ccc(C)cc1 ?
[A] -10.3% (inactive)

[Q] Which measured activity change value corresponds to COc1cccc(/C=C/C(=O)OCC(=O)N2CCCc3ccccc32)c1 ?
[A] -0.538% (inactive)

[Q] Which measured activity change value corresponds to CCOc1ccc(Cl)cc1-c1cc(C(=O)NCc2cccs2)[nH]n1 ?
[A] -22.8% (inactive)

[Q] Which measured activity change value corresponds to CN(C(=O)c1cccc(NC(=O)Cc2cccc(NC(=O)C3CCCN(C(=O)C4CC4)C3)c2)c1)C1CCC1 (stereo not given) ?
[A] 0% (inactive)

[Q] Which measured activity change value corresponds to O=S1(=O)CCN(C2CCCCCCCCCCC2)CC1 ?
[A] 26.7% (inactive)

[Q] Which measured activity change value corresponds to Cc1ccc(Nc2nc(Cl)c(C=O)s2)cc1 ?
[A] -13.1% (inactive)

[Q] Which measured activity change value corresponds to CC(C)CN(C(=O)Cn1c(=O)cnc2ccccc21)C1CCS(=O)(=O)C1 (stereo not given) ?
[A] 5.99% (inactive)

[Q] Which measured activity change value corresponds to CCOC(=O)N1C(=O)C[C@](Sc2ccc(C)cc2)(C(=O)OC)[C@H]1c1ccccc1 ?
[A] -13.1% (inactive)

* * *

Would you mind telling me the reported activity change of each entry?
# TEST NAME: qHTS for Inhibitors of Inflammasome Signaling: IL-1-beta AlphaLISA Primary Screen
# STATED CONDITIONS: THP-1 LPS/ATP IL-1B secretion, 16 h; at 57.5 µM, hits give low values
Out of some 360,000 compounds screened, about 17,000 (4.7%) were called active. About 5% were inconclusive and are not listed. This excerpt belongs to a sample that is enriched for actives.
# output: bare number, implied unit %

[Q] Which measured activity change value corresponds to Cc1cc(C)c(S(=O)(=O)NCC(c2ccc3c(c2)OCO3)N2CCOCC2)c(C)c1 (stereo unspecified) ?
[A] 0

[Q] Which measured activity change value corresponds to CCOc1ccc(C(O)Cn2c(=N)n(CCN3CCCCC3)c3ccccc32)cc1 (stereo unspecified) ?
[A] -60.3

[Q] Which measured activity change value corresponds to CCOc1ccc(CN2CCCN(C)CC2)cc1 ?
[A] 14.6

[Q] Which measured activity change value corresponds to COc1ccc(C(=O)NC(C)Cn2nc(C)cc2C)cc1OC1CCN(C(C)=O)CC1 (stereo unspecified) ?
[A] 0

[Q] Which measured activity change value corresponds to CCn1cc(CN2CCC(C(=O)Nc3cccc(-c4cccc(Cl)c4)c3)CC2)cn1 ?
[A] -79.5

[Q] Which measured activity change value corresponds to Cn1c(=N)n(CC(O)c2ccccc2)c2ccccc21 (stereo unspecified) ?
[A] 35.9

Values compiled from PubChem BioAssay AID743279.
